Experimental Endpoint: melting point

- Molecule: "Cc1ncc(CN2CCc3ccc(OCc4ccccc4)cc3C2)c(N)n1"
  Test Result: "151 to 153 °C"
- Molecule: "COc1ccc(Oc2c(C)cc(CO)cc2C)cc1C(C)C"
  Test Result: "78 to 80 °C"
- Molecule: "NC(=O)N(O)CCNS(=O)(=O)c1ccc2ccccc2c1"
  Test Result: "174 °C"
- Molecule: "CCCCn1cnnc1SC(=O)c1ccoc1"
  Test Result: "102 to 105 °C"
- Molecule: "COc1ccc2c(c1)CC(=O)N2N"
  Test Result: "136 to 138 °C"
- Molecule: "Oc1ccc(-c2cc3cc(O)cc(CC(F)(F)F)c3o2)cc1"
  Test Result: "210 to 213 °C"
- Molecule: "COc1ccc2c(c1)C(=O)C(Oc1cccnc1)CO2 (configuration not stated)"
  Test Result: "116 to 117 °C"
- Molecule: "CC(=O)C(Oc1cc(Cl)cc(C#N)c1)C(C)=O"
  Test Result: "105 to 108 °C"
- Molecule: "C=Cc1ccc([C@@H](C)N=Cc2cccc(C)n2)cc1"
  Test Result: "25 °C"
- Molecule: "O=c1cc(OCc2cccc(Cl)c2)ccn1Cc1ccccc1"
  Test Result: "95.5 to 95.7 °C"
- Molecule: "CCCSCCCCCCCCCC(=O)O"
  Test Result: "42 to 43.5 °C"
- Molecule: "Cc1cc(=O)n2cccc(S)c2n1"
  Test Result: "240 to 241 °C"

----------
- Compound: "CC(=O)Nc1ncc(S(=O)(=O)NCC(O)(Cn2cncn2)c2ccc(Cl)cc2Cl)s1 (stereo not given)"
  melting point: "96 to 112 °C"
- Compound: "CCc1cc(C(C)=O)c(O)cc1OCCCCCCc1nnn[nH]1"
  melting point: "126 to 127 °C"
- Compound: "O=S(=O)(NCC1CCC(NCC2CCc3ccccc3C2)CC1)c1ccc2ccccc2c1 (stereo not given)"
  melting point: "114 to 115 °C"
- Compound: "COc1cccc(C2=C(CC(C)=O)C(=O)NCCC2)c1"
  melting point: "140 to 142 °C"
- Compound: "OCC(O)CN1CCN(c2ccc(Cl)nn2)CC1 (stereo not given)"
  melting point: "126 to 128 °C"

----------
Measured melting point values are reported for all entries that follow.

- Compound: "Cc1ccc2c(C(C)C(=O)O)cc(=O)[nH]c2c1 (stereo not given)"
  melting point: "209 to 210 °C"
- Compound: "COc1ccc(CS[C@@H]2C[C@@H](CN=[N+]=[N-])N(S(=O)(=O)c3ccc4ccccc4c3)C2)cc1"
  melting point: "143 °C"
- Compound: "COc1cccc(CC(=O)O)c1OCCCc1cn(-c2ccc(C)cn2)nc1C(C)C"
  melting point: "132 to 133 °C"
- Compound: "O=[N+]([O-])c1ccc(CN2CCCCc3sccc32)cc1"
  melting point: "141 to 142 °C"
- Compound: "CC(Oc1ccc2oc3cc(Cl)ccc3c2c1)C(N)=O (stereo not given)"
  melting point: "185 to 187 °C"
- Compound: "O=C(COc1noc(-c2ccccc2)c1Cl)NCCO[N+](=O)[O-]"
  melting point: "138 to 139 °C"
- Compound: "O=C1CCC(C(=O)c2ccc(C3CCCCC3)cc2)N1 (stereo not given)"
  melting point: "200 °C"
- Compound: "CC1CC(=O)NN=C1c1ccc(NC(=O)c2cccs2)cc1 (stereo not given)"
  melting point: "256 to 258 °C"
- Compound: "CC1(C)CCC(=O)Nc2cc(OCCCCCN3CCN(c4cccc(Cl)c4Cl)CC3)ccc21"
  melting point: "128 to 130 °C"
- Compound: "Cc1cc(O)c(C(C)(C)C)cc1N"
  melting point: "191 to 192 °C"
- Compound: "CC(C)c1nc(-c2ccccc2)n(-c2ccc(F)cc2)c1CO"
  melting point: "186 to 188 °C"
- Compound: "COc1ccc(CCNC(=O)N(C)O)cc1OC"
  melting point: "103 to 104 °C"
- Compound: "CCOC(=O)C1=C(CSC(C)=O)NC=C(C(=O)OC)C1c1cccc(Cl)c1Cl (single isomer, unassigned; (-))"
  melting point: "155 to 157 °C"
- Compound: "CCOC(=O)C1Cc2c(OC)cc(Cl)c(OC)c2CO1 (stereo not given)"
  melting point: "95 °C"
- Compound: "O=C(O)/C(=C\\c1cc(-c2ccc3c(c2)OCO3)n(-c2cc(Cl)ccc2Cl)n1)c1cccc(Cl)c1"
  melting point: "174 °C"
- Compound: "Cc1cc(Oc2cccc(C(F)(F)F)c2)nn1C(=O)NCC1CCCO1 (stereo not given)"
  melting point: "101 to 102 °C"
- Compound: "CC(N)Oc1cccc2c1ccn2S(=O)(=O)c1ccccc1F (stereo not given)"
  melting point: "147 to 150 °C"
- Compound: "O=C(/C=C/C=C(c1ccc(C(F)(F)F)cc1)c1ccc(C(F)(F)F)cc1)Nc1cccc2cnccc12"
  melting point: "164 to 166 °C"
- Compound: "CC(C)(C)OC(=O)NCCCC(=O)NCc1cccc2c1CN(C1CCC(=O)NC1=O)C2=O (stereo not given)"
  melting point: "199 to 201 °C"
- Compound: "COc1cc2nc(N3CCN(C(=S)Nc4ccccc4)CC3)nc(N)c2cc1OC"
  melting point: "138 to 140 °C"
